tested on: panel of more than 300 wild-type and mutant kinases (313 kinase panel) (Homo sapiens, UniProt Q16566)
Sequence (Q16566 1-473): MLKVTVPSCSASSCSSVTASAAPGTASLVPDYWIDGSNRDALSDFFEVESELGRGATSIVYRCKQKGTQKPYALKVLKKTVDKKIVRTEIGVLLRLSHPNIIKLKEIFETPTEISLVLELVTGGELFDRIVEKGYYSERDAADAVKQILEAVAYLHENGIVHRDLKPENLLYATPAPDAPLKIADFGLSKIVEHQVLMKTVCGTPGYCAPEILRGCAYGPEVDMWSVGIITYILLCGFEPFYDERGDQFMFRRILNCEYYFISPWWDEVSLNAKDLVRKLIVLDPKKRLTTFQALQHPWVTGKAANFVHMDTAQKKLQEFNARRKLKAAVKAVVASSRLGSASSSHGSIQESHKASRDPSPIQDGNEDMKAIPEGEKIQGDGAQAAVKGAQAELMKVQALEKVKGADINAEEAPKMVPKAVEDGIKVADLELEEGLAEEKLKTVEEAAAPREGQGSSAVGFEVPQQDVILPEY
assay name: Kinase profiling in a biochemical assay panel (mobility shift assays and ELISA), %-inhibition at 1 μM; selectivity entropy
particulars: kinase CaMK4; 1 μM compound
readout type: %-inhibition, CaMK4 (%)
Numbers only, in %.

Below are worked cases with known answers.
# lookup: %-inhibition, CaMK4 of `N#CC[C@H](C1CCCC1)n1cc(-c2ncnc3[nH]ccc23)cn1`
-2.58

Then what about the compound COc1cc2nccc(Oc3ccc(NC(=O)C4(C(=O)Nc5ccc(F)cc5)CC4)cc3)c2cc1OC [cabozantinib] ?
-10

Similarly, `CC(C)(C)c1nc(-c2cccc(NS(=O)(=O)c3c(F)cccc3F)c2F)c(-c2ccnc(N)n2)s1` ?
78

As a next step, examine the compound that follows.
Requested field: %-inhibition, CaMK4. Item: `O=S(=O)(c1cccc2cnccc12)N1CCCNCC1`
-5.66
